- Assay target: IKZF1 (Homo sapiens (Human), UniProt Q13422+Q96SW2)
- Sequence (Q13422 whole entry): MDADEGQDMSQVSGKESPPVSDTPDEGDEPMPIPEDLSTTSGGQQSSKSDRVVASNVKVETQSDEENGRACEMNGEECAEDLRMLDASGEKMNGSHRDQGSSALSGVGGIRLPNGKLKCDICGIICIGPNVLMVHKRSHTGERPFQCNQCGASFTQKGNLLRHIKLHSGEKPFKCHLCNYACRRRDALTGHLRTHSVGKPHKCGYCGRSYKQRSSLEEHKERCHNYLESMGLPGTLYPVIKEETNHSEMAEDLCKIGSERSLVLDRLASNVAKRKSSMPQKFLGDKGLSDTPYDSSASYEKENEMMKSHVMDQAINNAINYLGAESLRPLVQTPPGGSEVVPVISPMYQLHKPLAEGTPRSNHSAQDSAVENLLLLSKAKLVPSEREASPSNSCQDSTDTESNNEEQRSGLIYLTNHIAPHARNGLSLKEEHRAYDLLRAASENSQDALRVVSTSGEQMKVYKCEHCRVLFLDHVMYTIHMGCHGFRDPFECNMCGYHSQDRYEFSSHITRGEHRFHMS
- Sequence (Q96SW2 whole entry): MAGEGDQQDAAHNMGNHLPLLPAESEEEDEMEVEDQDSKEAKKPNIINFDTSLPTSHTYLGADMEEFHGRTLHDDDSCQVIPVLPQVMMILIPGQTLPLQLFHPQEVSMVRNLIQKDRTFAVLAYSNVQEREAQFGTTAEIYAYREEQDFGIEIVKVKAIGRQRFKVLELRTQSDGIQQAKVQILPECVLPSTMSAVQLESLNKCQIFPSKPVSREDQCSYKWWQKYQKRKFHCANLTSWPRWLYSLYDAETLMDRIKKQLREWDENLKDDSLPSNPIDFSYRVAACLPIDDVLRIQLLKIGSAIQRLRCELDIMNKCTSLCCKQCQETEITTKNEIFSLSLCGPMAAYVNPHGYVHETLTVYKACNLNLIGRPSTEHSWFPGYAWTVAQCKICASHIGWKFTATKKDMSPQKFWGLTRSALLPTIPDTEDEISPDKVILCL
- Sequence (Q16531 2-1140 partner): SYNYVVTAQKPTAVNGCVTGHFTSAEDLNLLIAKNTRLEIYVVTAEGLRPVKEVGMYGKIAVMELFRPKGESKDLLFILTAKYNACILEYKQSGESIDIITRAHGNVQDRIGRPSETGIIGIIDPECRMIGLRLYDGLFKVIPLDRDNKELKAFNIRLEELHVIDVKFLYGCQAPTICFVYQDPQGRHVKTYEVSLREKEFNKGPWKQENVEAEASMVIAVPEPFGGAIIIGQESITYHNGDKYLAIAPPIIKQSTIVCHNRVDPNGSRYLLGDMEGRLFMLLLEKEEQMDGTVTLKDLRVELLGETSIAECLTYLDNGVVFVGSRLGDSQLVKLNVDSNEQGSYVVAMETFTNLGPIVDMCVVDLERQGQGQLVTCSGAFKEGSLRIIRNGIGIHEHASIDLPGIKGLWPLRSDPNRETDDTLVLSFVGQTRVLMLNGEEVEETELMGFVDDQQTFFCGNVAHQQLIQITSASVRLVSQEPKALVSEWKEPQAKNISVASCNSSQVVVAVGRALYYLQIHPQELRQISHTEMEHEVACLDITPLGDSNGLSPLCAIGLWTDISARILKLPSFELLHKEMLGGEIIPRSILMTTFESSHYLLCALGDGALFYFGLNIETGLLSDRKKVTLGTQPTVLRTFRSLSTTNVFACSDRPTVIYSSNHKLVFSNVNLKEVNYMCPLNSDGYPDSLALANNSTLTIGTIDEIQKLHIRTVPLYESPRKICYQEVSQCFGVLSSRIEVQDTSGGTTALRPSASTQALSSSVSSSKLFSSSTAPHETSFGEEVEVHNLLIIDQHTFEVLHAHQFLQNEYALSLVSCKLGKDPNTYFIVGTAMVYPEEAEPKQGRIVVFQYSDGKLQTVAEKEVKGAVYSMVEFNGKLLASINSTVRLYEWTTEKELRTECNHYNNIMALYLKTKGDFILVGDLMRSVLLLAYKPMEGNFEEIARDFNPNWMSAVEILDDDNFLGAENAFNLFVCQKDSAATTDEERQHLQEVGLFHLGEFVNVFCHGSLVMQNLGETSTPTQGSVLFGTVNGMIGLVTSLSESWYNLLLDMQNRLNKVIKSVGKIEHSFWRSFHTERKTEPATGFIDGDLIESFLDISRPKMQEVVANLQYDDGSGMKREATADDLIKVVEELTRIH
- Measurement description: In vitro IKZF1 HiBit Assay (HEK293T Flp-in-HiBiT-IKZF1 stable cell line)
- Assay type: cell-based
- Measurement context: HEK293T Flp-in-HiBiT-IKZF1 stable cell line, 6 hrs incubation; read-out: IKZF1 HiBit DC50
Assay metric: DC50

The examples below pair each entry with its known result.
1) Nc1n[nH]c2c(CN3CCC(F)C3)cc(-c3ccc4c(c3)CN(C3CCC(=O)NC3=O)C4=O)nc12 (stereo not shown)
1000 to 10000 nM
2) Cc1nc2c(CN3CCCC3)cc(-c3ccc4c(c3)CN(C3CCC(=O)NC3=O)C4=O)nc2n1C1COC1 (stereo not shown)
> 10000 nM
3) Cn1ccc2c(CN3CC4(CCC4)C3)cc(-c3ccc4c(c3)CN(C3CCC(=O)NC3=O)C4=O)nc21 (stereo not shown)
10 to 100 nM
4) Cn1ccc2c(CN3CC4CCCC4C3)cc(-c3ccc4c(c3)CN(C3CCC(=O)NC3=O)C4=O)nc21 (stereo not shown)
> 10000 nM

So, Cn1cnc2c(CN3CCCC3)cc(-c3ccc4c(c3)CN(C3CCC(=O)NC3=O)C4=O)nc21 (stereo not shown) ? Its DC50 was 1 to 10 nM

So, CC(C)Nc1n[nH]c2c(CN3CCCC3)cc(-c3ccc4c(c3F)CN(C3CCC(=O)NC3=O)C4=O)nc12 (stereo not shown) ? Its DC50 was > 10000 nM

So, CN(C)C1CCN(Cc2cc(-c3ccc4c(c3)CN(C3CCC(=O)NC3=O)C4=O)nc3c2ccn3C2COC2)CC1 (stereo not shown) ? Its DC50 was > 10000 nM

So, Cn1ccc2c(CN3CCC(O)C3)cc(-c3ccc4c(c3)CN(C3CCC(=O)NC3=O)C4=O)nc21 (stereo not shown) ? Its DC50 was 10 to 100 nM

Each recorded value in this set is attributed to patent US20250214991A1.
